system: HCT-116; assay: Cytotoxicity against human HCT-116 cells assessed as reduction in cell viability incubated for 72 hrs by MTT assay; type: functional, cell-based; settings: HCT-116, 72 h
Recorded IC50 for the following compounds
measure_name: IC50 (µM)

> print(dat)
                                   compound  measure.name  unit.of.measure  quantitative.result
1  CN(C)CCCO/N=C1/C(=C2/C(=O)Nc3ccccc32)Nc2ccccc21          IC50               µM                 0.71
2  CN1CCCC1CCO/N=C1/C(=C2/C(=O)Nc3ccccc32)Nc2ccccc21 (stereo not given)          IC50               µM                 0.37
3  CN1CCCCC1CCO/N=C1/C(=C2/C(=O)Nc3ccccc32)Nc2ccccc21 (stereo not given)          IC50               µM                 1.28
4  CN1CCC(O/N=C2/C(=C3/C(=O)Nc4ccccc43)Nc3ccccc32)CC1          IC50               µM                 0.39
5  CN1CCCCC1CCO/N=C1/C(=C2/C(=O)Nc3ccc(F)cc32)Nc2ccccc21 (stereo not given)          IC50               µM                  0.6

----------
biological target: Histone chaperone ASF1A (Homo sapiens); experiment: Inhibition of ASF1a phosphorylation at S166 residue in human MDA-MB-231 cells at 10 uM incubated for 4 hrs by Western blot analysis; type: cell-based
Active and inactive are the calls of the source. The calls are words filed in the database; no cut-off is given here.
measure_name: inhibition of ASF1a S166 phosphorylation (active/inactive call)

> print(dat)
                                   compound  result
1  CN1CCC(O/N=C2/C(=C3/C(=O)Nc4ccccc43)Nc3ccccc32)CC1  Active
2  CN(C)CCCO/N=C1/C(=C2/C(=O)Nc3ccccc32)Nc2ccccc21  Active
3  CN1CCCC1CCO/N=C1/C(=C2/C(=O)Nc3ccccc32)Nc2ccccc21 (stereo unspecified)  Active
4  CN1CCCCC1CCO/N=C1/C(=C2/C(=O)Nc3cc(Cl)ccc32)Nc2ccccc21 (stereo unspecified)  Active
5  CN1CCCCC1CCO/N=C1/C(=C2/C(=O)Nc3ccc(F)cc32)Nc2ccccc21 (stereo unspecified)  Active
6  CN1CCCCC1CCO/N=C1/C(=C2/C(=O)Nc3ccc([N+](=O)[O-])cc32)Nc2ccccc21 (stereo unspecified)  Active
